Recorded self-splicing fitness (ln) values for a group of sequences are listed next.
Assay: self-splicing fitness, log relative to wild type (ln ratio); higher = more splicing; Tetrahymena group I intron in knt gene, E. coli kanamycin selection, DiMSum; sequences stand for … in CUCUCU…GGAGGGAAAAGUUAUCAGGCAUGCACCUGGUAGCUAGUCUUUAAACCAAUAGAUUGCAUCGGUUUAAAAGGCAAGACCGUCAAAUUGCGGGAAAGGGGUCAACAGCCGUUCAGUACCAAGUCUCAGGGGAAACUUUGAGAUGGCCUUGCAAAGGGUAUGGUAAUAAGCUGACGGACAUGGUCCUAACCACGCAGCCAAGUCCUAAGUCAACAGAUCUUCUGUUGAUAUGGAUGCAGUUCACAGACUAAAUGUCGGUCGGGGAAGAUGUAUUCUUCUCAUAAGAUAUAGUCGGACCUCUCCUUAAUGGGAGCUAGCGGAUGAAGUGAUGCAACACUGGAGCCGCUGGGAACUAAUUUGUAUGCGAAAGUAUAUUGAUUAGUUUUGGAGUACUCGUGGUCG;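 also: selection with 25 µg/mL kanamycin versus none on LB agar overnight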
Conditions: 37 °C
Lab note: record the figure alone, no unit after it.

>>> assay_result("GUAGAGCAAUAUUACGGGCA")
-0.35
>>> assay_result("GGACAGCAAUAUUACGUAUA")
-0.388
>>> assay_result("GUGCAGCAAUAUUACGUGUA")
-1.31
>>> assay_result("GGAAAGCAAUAUUACGCGGG")
-1.5
>>> assay_result("GCCUAGCAAUAUUACGUGGC")
-1.6

Supply reported self-splicing fitness (ln) belonging to this sequence: `GGUCAGCAAUAUUACGCCUC`
0.0345

Read the entry `AUAAAGCAAUAUUACGUCUG` and write its reported self-splicing fitness (ln).
-0.47

// Input: `GGCAAGCAAUAUUACGCAGU` . Output its self-splicing fitness (ln) only.
-1.43

Complete the entry with self-splicing fitness (ln) for `AUUUAGCAAUAUUACGCGCA`
-0.00399

Identify the reported self-splicing fitness (ln) for the following entry. `GGGCAGCAAUAUUACGGCGC`
0.0143

Kindly indicate its recorded self-splicing fitness (ln). Item: `AUACAGCAAUAUUACGAGUU`
-0.493

Supply reported self-splicing fitness (ln) belonging to this sequence: `CCAAAGCAAUAUUACGCACA`
-1.66

Assign self-splicing fitness (ln) to the following record: `GGAUAGCAAUAUUACGGAAG`
-2.85

Return self-splicing fitness (ln) (reported value) for this sequence: `CUGUAGCAAUAUUACGCUUU`
-3.19
